- EXPERIMENTAL_DETAILS: Selectivity ratio of IC50 for human DHFR to Candida glabrata DHFR
Here the recorded Ratio IC50 is given for each entry.

[
  {
    "COMPOUND": "COc1cc(C(C)C#Cc2c(C)nc(N)nc2N)cc(N2CCOCC2)c1 (centres undefined)",
    "Ratio IC50": 20
  },
  {
    "COMPOUND": "CCc1nc(N)nc(N)c1C#CCc1cc(OC)cc(-c2cccc3cnccc23)c1",
    "Ratio IC50": 3.8
  },
  {
    "COMPOUND": "COc1cc(C(C)(C)C#Cc2c(C)nc(N)nc2N)cc(OC)c1OC",
    "Ratio IC50": 26
  },
  {
    "COMPOUND": "CCc1nc(N)nc(N)c1C#CCc1cc(OC)cc(-c2ccc3c(c2)OCCO3)c1",
    "Ratio IC50": 7.4
  },
  {
    "COMPOUND": "CCc1nc(N)nc(N)c1C#CC(C)c1cc(OC)cc(-c2ccc3c(c2)OCCO3)c1 (centres undefined)",
    "Ratio IC50": 14
  },
  {
    "COMPOUND": "CCc1nc(N)nc(N)c1C#CC(C)c1cc(OC)cc(-c2cccc3cnccc23)c1 (centres undefined)",
    "Ratio IC50": 4.1
  },
  {
    "COMPOUND": "COc1cc(-c2ccncc2)cc(C(C)C#Cc2c(C)nc(N)nc2N)c1 (centres undefined)",
    "Ratio IC50": 15
  },
  {
    "COMPOUND": "CCc1nc(N)nc(N)c1C#CC(C)c1cc(OC)cc(-c2ccncc2)c1 (centres undefined)",
    "Ratio IC50": 15
  },
  {
    "COMPOUND": "CCc1nc(N)nc(N)c1C#CC(C)c1cc(OC)cc(N2CCOCC2)c1 (centres undefined)",
    "Ratio IC50": 11
  }
]
